Sourced from ChEMBL document CHEMBL3399952

The reader will find reported cytotoxicity at 20 µM values listed item by item below.
- MEASUREMENT_PROTOCOL: Cytotoxicity against human macrophages assessed as cell death at 20 uM by TMRE-based assay
- Parameters: species or system Macrophage
- MEASUREMENT_PARAMETERS: read-out: INH
Give just the number in %; leave the unit off.

SMILES_TEXT: CNC(=O)CCc1cc(-c2ccc(-c3ccc(C(F)(F)F)cc3)cc2)n(-c2ccc(NS(=O)(=O)NC(=O)OC(C)(C)C)cc2)n1
PROPERTY_NAME: cytotoxicity at 20 µM
UNIT_INFO: %
OBS_VALUE: 26

Now for another entry.
### Prompt Complete the entry with cytotoxicity at 20 µM for CNC(=O)CCc1cc(-c2ccc(-c3ccc(C(F)(F)F)cc3)cc2)n(-c2ccc(NS(=O)(=O)N(C)C)cc2)n1
### Response 4
